Sourced from PubChem BioAssay (NCI)

system: SK-OV-3 ovarian; assay: NCI-60 one-dose screen, 48 h (100 = growth as untreated, 0 = no growth, -100 = all killed); conditions: 10 µM unless noted
Compounds without any hit were thinned out: in the full panel of roughly 83,000, 20% have a hit. Active and inactive are the calls of the source. The calls were made as follows: active = growth percent below 10; inactive = the rest.
Test Readout: growth

> print(dat)
                                   compound  test.readout  observed.measurement
1  COc1ccc([C@@H]2[C@@H](Cl)C(=O)N2c2cc(OC)c(OC)c(OC)c2)cc1C        growth      30.4% (inactive)
2  Fc1ccc2c(CN3CCO[C@H](COc4cccc(Cl)c4)C3)c[nH]c2c1        growth      85.7% (inactive)
3  COc1ccc(/C=C(/C(=O)N2CCN(c3ccccc3)CC2)c2cc(OC)c(OC)c(OC)c2)cc1O        growth      30.4% (inactive)
4  Cc1ccc(NC(=O)c2nc(S(C)=O)oc2-c2ccc(F)cc2)cc1Nc1nccc(-c2cccnc2)n1 (centres undefined)        growth      90.3% (inactive)
5  COc1ccc(C(=O)/C=C/c2cn(-c3ccccc3)nc2-c2cccc(Nc3ccnc4cc(Cl)ccc34)c2)cc1        growth       118% (inactive)

q: What value of measured growth is listed for `CCCCCCCCCCCCCCCCCC1=NC(C)(C)CN1C(C)(C)CO` ?
a: -40% (active)

q: What value of measured growth is listed for `COc1cc(-c2nc(-c3nc4cc(C(=O)c5ccccc5)ccc4[nH]3)cc3c2[nH]c2ccccc23)cc(OC)c1OC` ?
a: 146% (inactive)

q: Please look up its growth: `CCCNC(=S)N/N=C(\C)c1ccccn1`
a: 29.3% (inactive)

q: # query: growth of entry `Oc1[nH]c2ccccc2c1/C=c1/ccc2c(c1)N=C(c1ccc(C(F)(F)F)cc1)N=2`
a: 82.7% (inactive)
